B1: Caulobacter ParB omega fusion; a variant is named by its letters at X, in order, B8GW30 (parent)
chain: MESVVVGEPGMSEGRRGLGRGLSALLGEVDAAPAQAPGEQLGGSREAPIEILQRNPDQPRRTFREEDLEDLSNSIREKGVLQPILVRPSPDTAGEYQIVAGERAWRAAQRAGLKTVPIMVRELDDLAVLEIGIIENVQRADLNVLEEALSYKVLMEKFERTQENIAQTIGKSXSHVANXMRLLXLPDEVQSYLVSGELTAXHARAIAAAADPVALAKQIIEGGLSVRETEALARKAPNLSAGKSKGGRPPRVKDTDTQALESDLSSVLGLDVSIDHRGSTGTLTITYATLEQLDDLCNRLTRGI

variants of: B1; test: one-hybrid fitness for binding parS DNA (scaled: cognate 1, non-cognate 0); higher = stronger binding; conditions: with parS DNA site
In all, about 81,000 sequences were measured (“one-hybrid fitness for binding parS DNA”: median about -0.17, highest 2% from about 0.51 on). This is one part of a sample in which the highest values are shown more often than they occur.
Listing of entries alongside the reported one-hybrid fitness for binding parS DNA.

Item `LHVL` has what recorded one-hybrid fitness for binding parS DNA?
≤ 0.2

Every entry's value here was drawn from a collection of fitness landscapes (doi:10.1016/j.celrep.2020.107928).
